These data points were gathered from patent US20260166021A1.

- test.method.notes: Solubility screening of Formula (I) in crystallization solvents at RT and 50° C. (TABLE 3)
- Type: physicochemical
- condition.set: isopropanol (IPA), organic solvent or mixture, thermodynamic from solid, IPA; RT; read-out: Solubility Range
measured.attribute: solubility

Q: Requested read-out: solubility. Entry: CC[C@H](C)C(=O)N1CCC(NC(=O)Nc2ccc(OC(F)(F)F)c(F)c2)CC1 [Formula (I)]
A: ≥ 56 mg/mL

----------
- test.method.notes: Solubility screening of Formula (I) in crystallization solvents at RT and 50° C. (TABLE 3)
- Assay type: physicochemical
- condition.set: toluene, 50 °C, organic solvent or mixture, thermodynamic from solid, Toluene; 50° C.; read-out: Solubility Range
- Description: This example covers crystallization of Formula (I) in multiple solvent systems. Solvents were selected to span a range of polarities, functionalities, and classifications according to the International Conference on Harmonization (ICH) with preferences given to class II and class III solvents. […] After each addition of solvent, the vials were shaken and visually inspected for residual solids. […]
measured.attribute: solubility

Q: Requested read-out: solubility. Entry: CC[C@H](C)C(=O)N1CCC(NC(=O)Nc2ccc(OC(F)(F)F)c(F)c2)CC1
A: 10 to 25 mg/mL
